Numbers sourced from the METLIN SMRT retention time set (Domingo-Almenara et al. 2019).

Assay: gradient 5% acetonitrile 3 min, to 50% in 2 min, to 85% in 15 min, held 3 min, 100 µL/min
Settings: column: Zorbax Extend-C18 2.1 x 50 mm; eluents: water / acetonitrile, 0.1% formic acid
recordedMetric: RP-LC retention time (s)

Known results for compounds:
compound: COC(=O)c1cnc(N2CCN(c3cc(Cl)ccc3C)CC2)c2ccccc12
readoutUnits: s
RP-LC retention time: 651
//
compound: O=C(NC1CCN(Cc2ccccc2)CC1)C1CC(=O)N(CCc2ccccc2)C1 (centres undefined)
readoutUnits: s
RP-LC retention time: 600
//
compound: CCc1ccc(CNC(=O)C2CCN(Cc3cn(C)c4ccc(OC)cc34)CC2)cc1
readoutUnits: s
RP-LC retention time: 749
//
compound: O=C(NCCN1CCCC1)C1CCN(c2nc(-c3ccc(Cl)cc3)no2)CC1
readoutUnits: s
RP-LC retention time: 603
//
compound: Cc1ccsc1-c1nnc(CC(=O)N2CCN(C3CCCCC3)CC2)o1
readoutUnits: s
RP-LC retention time: 616

[P] CC(C)c1noc(N2CCC(COc3ccc(-c4ccc(S(C)(=O)=O)cc4)nc3)CC2)n1
[Q] COc1cccc(CN2CCC3(CCC3O)CC2)c1OC (centres undefined)
q: Higher RP-LC retention time: P or Q ? Write the label of whichever entry you select.
a: P
(P: 991 s, Q: 572 s)

* * *

Experiment: gradient 5% acetonitrile 3 min, to 50% in 2 min, to 85% in 15 min, held 3 min, 100 µL/min
Conditions: column: Zorbax Extend-C18 2.1 x 50 mm; eluents: water / acetonitrile, 0.1% formic acid
recordedMetric: RP-LC retention time (s)

Here's what some known entries look like.
compound: COc1ccc(NC(=O)Cc2nnc3ccc(C(=O)Nc4ccccc4)cn23)cc1
RP-LC retention time (s): 749
--
compound: O=C(NCc1ccc(F)cc1)C1CCN(S(=O)(=O)c2ccc3[nH]c(=O)sc3c2)CC1
RP-LC retention time (s): 742
--
compound: Cc1cc(C)nc(SCc2ccc(C(=O)NCCc3c[nH]c4ccccc34)o2)n1
RP-LC retention time (s): 894

[a] Cc1cnc(-c2ccccc2)n1CCNS(=O)(=O)Cc1ccccc1F
[b] COc1ccc(C(=O)N2CC(F)(F)C[C@H]2COc2ccc3c(c2)CCC3)cn1
q: Would you let me know which has the greater RP-LC retention time value, a or b ? Answer by quoting the chosen item's label.
a: b
(b: 1150 s, a: 651 s)

* * *

Test: gradient 5% acetonitrile 3 min, to 50% in 2 min, to 85% in 15 min, held 3 min, 100 µL/min
Conditions: column: Zorbax Extend-C18 2.1 x 50 mm; eluents: water / acetonitrile, 0.1% formic acid
recordedMetric: RP-LC retention time (s)

compound: COc1ccc(-n2c(=O)n(C)c(=O)c3cc(C(=O)Nc4ccc(C)cc4)cnc32)cc1
readoutUnits: s
RP-LC retention time: 918

compound: CCc1ccccc1NC(=O)Cn1c(=O)n(-c2cccc(C)c2)c(=O)c2c1cc(C)n2C
readoutUnits: s
RP-LC retention time: 882

compound: CCOC(=O)C(C)NC(=O)NCC(=O)N1CCc2ccccc21 (stereo not given)
readoutUnits: s
RP-LC retention time: 696

compound: COc1cc(NC(=O)CCc2c(-c3ccc(F)cc3)nc3ccccn23)cc(OC)c1
readoutUnits: s
RP-LC retention time: 672

compound: CCOC(=O)C1CCN(C(=O)C2CCCN2S(=O)(=O)c2cc3c(cc2Cl)NC(=O)CO3)CC1 (stereo not given)
readoutUnits: s
RP-LC retention time: 710
